I'd appreciate it if you could supply Mds (Macbeth density of the printed part after coating with salad oil) values for the items below.
test: Color Developer Test Method: solvent resistance of the color image, salad oil (Mds); type: physicochemical; conditions: colored portion coated with salad oil, wiped, left standing 0.5 hour; Macbeth RD-914

Past entries and their recorded results:
In [3]: df
Out[3]:
                                   compound  assay_value
0  Cc1ccc(S(=O)(=O)NC(=O)Nc2ccc(NC(=O)NS(=O)(=O)c3ccc(C)cc3)cc2)cc1         0.84
1  Cc1ccc(S(=O)(=O)NC(=O)Nc2cccc3c(NC(=O)NS(=O)(=O)c4ccc(C)cc4)cccc23)cc1         1.05
2  Cc1ccc(S(=O)(=O)NC(=O)Nc2cccc3cccc(NC(=O)NS(=O)(=O)c4ccc(C)cc4)c23)cc1         0.73
3  O=C(Nc1ccc(Cc2ccc(NC(=O)NS(=O)(=O)c3cccc4ccccc34)cc2)cc1)NS(=O)(=O)c1cccc2ccccc12          0.5
4  Cc1ccc(S(=O)(=O)NC(=O)Nc2cccc(NC(=O)NS(=O)(=O)c3ccc(C)cc3)c2)cc1          1.2

// switching to the query compound
[ask] Which Mds (Macbeth density of the printed part after coating with salad oil) is reported for this compound? O=S(=O)(c1ccccc1)c1ccc(O)c(S(=O)(=O)c2ccccc2)c1 [2,4-bis(phenylsulfonyl)phenol]
[reply] 0.6

* * *

assay: log P, OECD Chemical Test Guideline No. 117, partition coefficient; conditions: n-octanol/water
property_name: chromatographic logP

Past entries and their recorded results:
                                   compound  assay_value
0  COc1ccc(OCCOCCOc2ccc(OC)cc2)cc1 [bis(2-(4-methoxyphenoxy)ethyl) ether]          2.9
1  Cc1ccc(OS(=O)(=O)c2c(C)cc(C)cc2C)cc1 [p-tolyl mesitylenesulfonate]          3.1

I'm hoping you can list chromatographic logP for every compound here, please.
1. O=C(OCc1ccccc1)c1ccc(C(=O)OCc2ccccc2)cc1 [dibenzyl terephthalate]
2. Cc1cccc(OCCOc2cccc(C)c2)c1 [1,2-bis(m-tolyloxy)ethane]
3. c1ccc(Cc2ccc(-c3ccccc3)cc2)cc1 [p-benzylbiphenyl]
4. O=C(Oc1ccccc1)c1ccc2ccccc2c1O [phenyl 1-hydroxy-2-naphthoate]

[reply]
1: 5.7; 2: 5; 3: 6.3; 4: 5.1

I'm hoping you can list chromatographic logP for every compound here, please.
1. Cc1ccc(Oc2ccc(Oc3ccc(C)cc3)cc2)cc1 [1,4-bis(p-tolyloxy)benzene]
2. c1ccc(OCCOc2ccc3ccccc3c2)cc1 [1-phenoxy-2-β-naphthoxyethane]
3. CC(=O)CC(=O)Nc1ccccc1Cl [o-chloroacetoacetoanilide]

[reply]
[3.1, 5.2, 0.2]

* * *

experiment: log P, OECD Chemical Test Guideline No. 117, partition coefficient; conditions: n-octanol/water (OECD Test Guideline 117, HPLC method)
Structures can show the parent of a compound that is named as a salt.
I'd appreciate it if you could supply chromatographic logP values for the items below.
One number for each entry.

Past entries and their recorded results:
>>> print(df.to_string())
                                   compound  assay_value
0  O=C(OCc1ccccc1)C(=O)OCc1ccccc1 [dibenzyl oxalate]          3.1
1  O=C(Oc1ccccc1)c1ccc2ccccc2c1O [phenyl 1-hydroxy-2-naphthoate]          5.1
2  Cc1ccc(S(=O)(=O)Oc2ccccc2)cc1 [phenyl p-toluenesulfonate]          3.1
3                 O=S(=O)(c1ccccc1)c1ccccc1          1.5

// switching to the query compound
[ask] Which chromatographic logP is reported for this compound? c1ccc(OCCOc2ccccc2)cc1
[reply] 3.6
